Entry source: ChEMBL document CHEMBL3433997

Biological target: Solute carrier family 2, facilitated glucose transporter member 1 (Homo sapiens)
Assay: ST_JUDE_LEISH: Cytotoxicity at 2uM final concentration against transgenic Leishmania Mexicana promastigotes LmGLUT1 that are glucose transport deficient and complemented with the human glucose transporter GLUT1. Activity is measured by DNA content using SYBR green in vitro
Format: functional
Observation Type: inhibition (%)

Compound: O=C(Nc1ccc(Cl)cc1)Nc1cccc(-c2ccc(-c3nc4cc(F)ccc4[nH]3)cc2)c1
Observation Type: inhibition
Recorded Result: 6.12

Compound: Cc1cccc2nc(-c3ccc(-c4cccc(NC(=O)C(C)CN(C)C)c4)s3)[nH]c12 (stereo not given)
Observation Type: inhibition
Recorded Result: -0.15

Compound: COc1ccc2nccc([C@@H](O)CN3CCC(NCc4cn5cc(F)ccc5n4)CC3)c2c1
Observation Type: inhibition
Recorded Result: 2.06

Compound: Cc1ccc(CCNCC(O)c2cccc(C(F)(F)F)c2)cc1 (stereo not given)
Observation Type: inhibition
Recorded Result: 0.25

Compound: O=S(=O)(Nc1cc2c(cc1OCc1ccccc1)CCN(C1CCC1)CC2)c1ccc(-c2ccc(Cl)cc2)cc1
Observation Type: inhibition
Recorded Result: 1.72

Compound: CCCCC(CCCC)CN1C(=O)C(c2ccccc2)(c2ccccc2)N=C1N
Observation Type: inhibition
Recorded Result: 1.9

Compound: COc1ccc(-c2ccc(CNCc3ccsc3)cc2)cc1S(=O)(=O)NCCN1CCCC1
Observation Type: inhibition
Recorded Result: -0.99

Compound: CC(C)c1ccc(CN2CCC(NC(=O)c3ccc(-c4cccc(F)c4)s3)CC2)cc1
Observation Type: inhibition
Recorded Result: 1.18

Compound: Cc1ccc(O)cc1Nc1ccnc2cc(-c3ccccn3)ccc12
Observation Type: inhibition
Recorded Result: 5.99

Compound: CCC(=O)Nc1cc(=O)[nH]c2nc(-c3ccc(Cl)cc3)nn12
Observation Type: inhibition
Recorded Result: -1.32

Compound: CCc1cccc(OCCCON2C(=N)N=C(N)NC2(C)C)c1
Observation Type: inhibition
Recorded Result: 7.55

Compound: Nc1nccc2ccc(-c3ccnc(NCc4cccnc4)n3)cc12
Observation Type: inhibition
Recorded Result: 9.29

Compound: O=C(Nc1cccc(CN2CCN(Cc3cccc(O)c3)CC2)c1)c1cc2ccccc2s1
Observation Type: inhibition
Recorded Result: 3.62

Compound: FC(F)(F)c1ccc2[nH]ccc(=NN=CC=Cc3ccccc3)c2c1
Observation Type: inhibition
Recorded Result: 0.22

Compound: O=C(Cc1cccc2ccccc12)NC1CCN(c2ccnc3cc(Cl)ccc23)C1 (stereo not given)
Observation Type: inhibition
Recorded Result: -2.29

Compound: COc1ccc2nccc(N3CCN(CCNCc4ccc5c(n4)NC(=O)CS5)CC3)c2n1
Observation Type: inhibition
Recorded Result: 0.43

Compound: FC(F)(F)c1ccc2[nH]c(-c3cccc(-c4ccc(CNCCN5CCNCC5)cc4)c3)nc2c1
Observation Type: inhibition
Recorded Result: 2.75

Compound: O=C(NCC1CC1)C1CCN(C(c2ccc(Cl)cc2)c2ccc(Cl)cc2)CC1
Observation Type: inhibition
Recorded Result: 0.44

Compound: Cc1cc(NCCc2ccccc2)nc(NC(=N)Nc2cccc([N+](=O)[O-])c2)n1
Observation Type: inhibition
Recorded Result: 11.1

Compound: CN1CCN(c2ccc(Cl)cc2NC(=O)C2COc3ccccc3O2)CC1 (stereo not given)
Observation Type: inhibition
Recorded Result: 0.88

Compound: Cn1cncc1C(=O)Nc1cccc(-c2csc(-c3nc4ccccc4[nH]3)c2)c1
Observation Type: inhibition
Recorded Result: 2.44

Compound: CC(C)(CNCc1cc(Cl)cc(Cl)c1)c1nc(-c2ccnc(N)n2)c(-c2ccc(Cl)c(O)c2)[nH]1
Observation Type: inhibition
Recorded Result: -0.09

Compound: COc1ccc(-c2cc(NCc3ccc(-n4ccnc4)cc3)nc(Nc3ccccc3)n2)cc1
Observation Type: inhibition
Recorded Result: 2.37

Compound: Cc1cnc2ccc(NS(=O)(=O)c3sc4ccc(Cl)cc4c3C)cc2c1N1CCNCC1
Observation Type: inhibition
Recorded Result: 3.23

Compound: Cc1ccccc1NC(=O)C1CSCN1C(=O)OCc1ccccc1 (stereo not given)
Observation Type: inhibition
Recorded Result: -1.39

Compound: Cc1cc(NC(=O)c2ccco2)ccc1OC1CCN(Cc2ccccc2)CC1
Observation Type: inhibition
Recorded Result: 0.52

Compound: CC(=O)Nc1ccc(OCCCCN(Cc2ccccc2C(F)(F)F)c2ccc(C#N)c(C(F)(F)F)c2)cc1
Observation Type: inhibition
Recorded Result: 1.93

Compound: COc1ccc(CN(C)C(=O)CCNS(=O)(=O)c2ccc3c(c2)OCCCO3)cc1F
Observation Type: inhibition
Recorded Result: 5.25

Compound: O=C(C=Cc1cn(-c2ccccc2)nc1-c1ccccc1)N1CCN(c2ccncc2)CC1
Observation Type: inhibition
Recorded Result: 5.75

Compound: COc1ccc(NC(=O)/C=C/c2ccc(Cl)c(Cl)c2)cc1N1CCN(C)CC1
Observation Type: inhibition
Recorded Result: 9.73

Compound: CCCNCc1ccc(-c2ccc(CN(CCOC)C(=O)CC3CCCC3=O)cc2)nc1 (stereo not given)
Observation Type: inhibition
Recorded Result: 0.55

Compound: CC(C)(C)C/C=C\c1ccc(C(=O)NCC2CC2)cc1
Observation Type: inhibition
Recorded Result: 6.73

Compound: Cc1cccc2nc(-c3ccc(-c4cccc(NC(=O)Nc5ccc6c(c5)OCO6)c4)cc3)[nH]c12
Observation Type: inhibition
Recorded Result: 2.61

Compound: Nc1c2c(nc3ccc(NC(=O)c4ccccc4)cc13)CCCC2
Observation Type: inhibition
Recorded Result: 3.15

Compound: COc1ccccc1Nc1nc(C)cc(NCc2ccc(-n3ccnc3)cc2)n1
Observation Type: inhibition
Recorded Result: 8.92

Compound: COc1cccc(Cn2ccc3c4c(N)nc(N)nc4ccc32)c1
Observation Type: inhibition
Recorded Result: 94.3

Compound: CCOC(=O)c1ccc(NC(=O)NC2CCN(CCCCCNC(=O)/C=C/c3ccc(Cl)c(Cl)c3)C2)cc1 (stereo not given)
Observation Type: inhibition
Recorded Result: 2.05

Compound: c1cc(CNCCc2ccncc2)cc(-c2csc(-c3nc4ccccc4[nH]3)c2)c1
Observation Type: inhibition
Recorded Result: 0.51

Compound: COc1ccc(C(c2ccc(N(C)C)cc2)c2ccc(N(C)C)cc2)cc1
Observation Type: inhibition
Recorded Result: 95.3

Compound: Cc1ccc(F)c(C(=O)Nc2cccc(-c3nn4ccccc4c3-c3ccnc(Nc4cccc(F)c4)n3)c2)c1F
Observation Type: inhibition
Recorded Result: 9.44

----------
Reported values of inhibition for individual entries
Molecular target: Glucose transporter (Leishmania mexicana)
Assay: ST_JUDE_LEISH: Cytotoxicity at 2uM final concentration against transgenic Leishmania Mexicana promastigotes LmGT2 that are glucose transport deficient and complemented with the L. Mexicana glucose transporter 2. Activity is measured by DNA content using SYBR green in vitro
Type: functional

Compound: O=[N+]([O-])c1nc(Br)n(Cc2ccc(Cl)cc2)n1
inhibition / %: 4.39
//
Compound: CCN(CC)CCN(Cc1ccc(-c2ccc(C(F)(F)F)cc2)cc1)C(=O)Cn1cc(Cc2cnn(C)c2)c(=O)nc1/C=C/c1ccc(F)cc1
inhibition / %: 2.56
//
Compound: CCN(CC)CCN(CCCc1ccc(-c2ccc(C(F)(F)F)cc2)cc1)C(=O)Cn1c(CCc2cccc(F)c2F)nc(=O)c2c1CCC2
inhibition / %: 6.62
//
Compound: CS(=O)(=O)NCCCNCc1cccc(-c2ccc(-c3nc4ccccc4[nH]3)s2)c1
inhibition / %: 11
//
Compound: CNC(=O)c1cnc(Nc2ccc(OCC(O)CN(C)C)cc2)nc1Nc1cccc([N+](=O)[O-])c1 (stereo not drawn)
inhibition / %: 3.56
//
Compound: COc1ccc(O)c(C(=O)c2cc(C(=O)NC3CCCCC3)c(=O)n(C3CCCCC3)c2)c1
inhibition / %: 3.2
//
Compound: O=C(Nc1cccc(CN2CCCN(Cc3ncc[nH]3)CC2)c1)c1ccc(-c2ccccc2)cc1
inhibition / %: 2.54
//
Compound: CCCNCc1ccc(-c2ccc(CN(Cc3ccc4c(c3)OCO4)C(=O)[C@H]3CCCO3)cc2)nc1
inhibition / %: 8.76

----------
Reported values of inhibition for individual entries
Target: Glucose transporter (Leishmania mexicana) (UniProt O61059)
Assay: ST_JUDE_LEISH: Cytotoxicity at 2uM final concentration against transgenic Leishmania Mexicana promastigotes LmGT2 that are glucose transport deficient and complemented with the L. Mexicana glucose transporter 2. Activity is measured by DNA content using SYBR green in vitro
Assay type: functional
Observation Type: inhibition (%)

Molecule: N=C(Nc1nc(-c2ccccn2)cc2ccccc12)c1cccc(Cl)c1
Measured Target: Glucose transporter (Leishmania mexicana) (UniProt O61059)
Observation Type: inhibition
Unit Symbol: %
Recorded Result: 18.1
//
Molecule: c1ccc(CN2CCC(NCc3ccccc3-c3ccc(CNC4CCCC4)cc3)CC2)cc1
Measured Target: Glucose transporter (Leishmania mexicana) (UniProt O61059)
Observation Type: inhibition
Unit Symbol: %
Recorded Result: 6.38
//
Molecule: Cc1cc(-c2c[nH]c3ncc(-c4cccc5ncccc45)cc23)ccc1C(=O)O
Measured Target: Glucose transporter (Leishmania mexicana) (UniProt O61059)
Observation Type: inhibition
Unit Symbol: %
Recorded Result: 0.66
//
Molecule: CCCOc1ccc(NC(=O)c2cccs2)cc1Cl
Measured Target: Glucose transporter (Leishmania mexicana) (UniProt O61059)
Observation Type: inhibition
Unit Symbol: %
Recorded Result: 9.7
//
Molecule: COc1ccc(NC(=O)NC2CCN(c3ccnc4cc(Cl)ccc34)CC2)cc1
Measured Target: Glucose transporter (Leishmania mexicana) (UniProt O61059)
Observation Type: inhibition
Unit Symbol: %
Recorded Result: 0.02
//
Molecule: CC1(C)NC(N)=NC(=N)N1OCCSCc1cc(Cl)sc1Cl
Measured Target: Glucose transporter (Leishmania mexicana) (UniProt O61059)
Observation Type: inhibition
Unit Symbol: %
Recorded Result: 2.82
//
Molecule: O=C(NCCN1CCC(c2ncc(-c3ccccc3)o2)CC1)c1ccc(NC(=O)c2ccc(Cl)cc2)cc1
Measured Target: Glucose transporter (Leishmania mexicana) (UniProt O61059)
Observation Type: inhibition
Unit Symbol: %
Recorded Result: 1.19
//
Molecule: CCCCCCn1c(Sc2ccc(C#N)c([N+](=O)[O-])c2)nnc1-c1cccs1
Measured Target: Glucose transporter (Leishmania mexicana) (UniProt O61059)
Observation Type: inhibition
Unit Symbol: %
Recorded Result: -0.09
//
Molecule: O=C(Nc1ccc(OC2CCN(Cc3ccc(F)cc3)C2)c(Cl)c1)c1ccccc1 (stereo not given)
Measured Target: Glucose transporter (Leishmania mexicana) (UniProt O61059)
Observation Type: inhibition
Unit Symbol: %
Recorded Result: 4.94
//
Molecule: Cc1cccc2nc(-c3ccc(-c4cccc(CN5CCCC5CN)c4)s3)[nH]c12 (stereo not given)
Measured Target: Glucose transporter (Leishmania mexicana) (UniProt O61059)
Observation Type: inhibition
Unit Symbol: %
Recorded Result: -0.03
